- Target system: Tyrosine-protein kinase ZAP-70 (Homo sapiens, UniProt P43403)
- Sequence (P43403 whole entry): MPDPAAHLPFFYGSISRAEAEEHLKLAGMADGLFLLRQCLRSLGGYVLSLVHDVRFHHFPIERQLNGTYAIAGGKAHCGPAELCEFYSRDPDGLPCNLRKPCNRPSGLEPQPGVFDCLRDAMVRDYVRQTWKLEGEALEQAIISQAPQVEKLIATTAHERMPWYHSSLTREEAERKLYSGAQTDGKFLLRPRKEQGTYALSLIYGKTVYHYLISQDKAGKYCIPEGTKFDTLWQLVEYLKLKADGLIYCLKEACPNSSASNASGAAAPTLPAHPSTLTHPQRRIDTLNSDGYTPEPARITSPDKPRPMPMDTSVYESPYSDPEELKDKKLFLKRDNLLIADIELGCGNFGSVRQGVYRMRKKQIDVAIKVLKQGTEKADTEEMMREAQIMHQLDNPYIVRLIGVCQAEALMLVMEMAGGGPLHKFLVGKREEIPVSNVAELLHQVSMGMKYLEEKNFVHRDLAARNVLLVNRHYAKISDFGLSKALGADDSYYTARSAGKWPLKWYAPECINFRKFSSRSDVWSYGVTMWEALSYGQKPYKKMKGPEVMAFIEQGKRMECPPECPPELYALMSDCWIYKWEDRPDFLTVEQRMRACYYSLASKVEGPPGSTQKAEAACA
pIC50: −log10 of the molar value.
Measure name: pIC50

Record COc1ccccc1Nc1nc(N[C@H]2CCCC[C@H]2N)n2ccnc2c1C(N)=O (relative stereo) . Reported pIC50: < 5.00

----------
- Assay comment: Solubility in water
- Assay type: physicochemical
Measure name: solubility (µg/mL)
The figure you give is taken to be in µg/mL; do not add the unit.

Record COc1cc(Nc2nc(N[C@H]3CCCC[C@H]3N)n3ccnc3c2C(N)=O)cc(OC)c1 (relative stereo) . Reported solubility: 930

----------
- Tested on: PBMC
- Assay comment: Inhibition of IL2 production in PHA-stimulated human PBMC after 24 hrs by ELISA
Measure name: log10 IC50 (log10 of the value in nM)
Scale type: logarithmic (base 10). Underlying IC50 unit: nM.

Record COc1cc(Nc2nc(N[C@H]3CCCC[C@H]3N)n3ccnc3c2C(N)=O)cc(OC)c1 (relative stereo) . Reported log10 IC50: 1.76

Record CN[C@@H]1C[C@H]2O[C@@](C)([C@@H]1OC)n1c3ccccc3c3c4c(c5c6ccccc6n2c5c31)C(=O)NC4 [STAUROSPORINE] . Reported log10 IC50: 1.20

Record NC(=O)c1c(Nc2cc(F)cc(F)c2)nc(N[C@H]2CCCC[C@H]2N)n2ccnc12 (relative stereo) . Reported log10 IC50: 2.18

Record COc1cc(Nc2nc(N[C@H]3CCCC[C@H]3N)n3ncnc3c2C(N)=O)cc(OC)c1 . Reported log10 IC50: 1.88

Record COc1cc(Nc2nc(N[C@H]3CCCC[C@H]3N)n3cc(-c4ccccc4)nc3c2C(N)=O)cc(OC)c1 . Reported log10 IC50: 2.30

Record Cc1cc(C)cc(Nc2nc(N[C@H]3CCCC[C@H]3N)n3ccnc3c2C(N)=O)c1 (relative stereo) . Reported log10 IC50: 2.30

Record COc1cc(Nc2nc(N[C@H]3CCCC[C@H]3N)n3cnnc3c2C(N)=O)cc(OC)c1 . Reported log10 IC50: 1.66

----------
Provide the reported Papp of each item.
- Assay comment: Apparent permeability across human Caco-2 cells
- Format: ADME, cell-based
The figure you give is taken to be in ×10⁻⁶ cm/s; do not add the unit.

Record COc1cc(Nc2nc(N[C@H]3CCCC[C@H]3N)n3cc(-c4ccccc4)nc3c2C(N)=O)cc(OC)c1 . Reported Papp: 0.43

Record COc1cc(Nc2nc(N[C@H]3CCCC[C@H]3N)n3cnnc3c2C(N)=O)cc(OC)c1 . Reported Papp: 0.01

Record COc1cc(Nc2nc(N[C@H]3CCCC[C@H]3N)n3ccnc3c2C(N)=O)cc(OC)c1 (relative stereo) . Reported Papp: 3.33

Record COc1cc(Nc2nc(N[C@H]3CCCC[C@H]3N)n3ncnc3c2C(N)=O)cc(OC)c1 . Reported Papp: 0.33

The measurements presented in this section are drawn from ChEMBL document CHEMBL1142474.
